measurement kind: melting point

molecule	data value
CC(C)CC1C(=O)OC(Cc2ccccc2)C(=O)N(C)C(CC(C)C)C(=O)OC(C)CN(C)C(CC(C)C)C(=O)OC(Cc2ccccc2)C(=O)N(C)C(CC(C)C)C(=O)OC(C)CN1C (stereo unspecified)	130 to 132 °C
O=C(Nc1ccc(Br)cc1)OC1CCCNC1 (stereo unspecified)	169 to 170 °C
CCCCCCCCCCCCCCCCCCN(CCCCCCCCCCCCCCCCCC)C(=O)c1cc(NS(=O)(=O)c2cnc(NN)c(Cl)c2)c2ccccc2c1O	75 to 77 °C
CCCCCCCCCCCCCCCCCCOc1nc(OCCCCCCCCCCCCCCCCCC)nc(Oc2cc(-c3ccccc3)c(O)c(-c3ccccc3)c2)n1	33 °C
CCCCCCCCCCCCc1cc2c(cc1CCCCCCCCCCCC)C(=O)c1c(c(O)c3cc(CCCCCCCCCCCC)c(CCCCCCCCCCCC)cc3c1O)C2=O	66 to 76 °C
COC(=O)Nc1cc(C(/C=C/c2c(OC)cc(OC)cc2OC)S(=O)(=O)C(/C=C/c2c(OC)cc(OC)cc2OC)c2ccc(OC)c(NC(=O)OC)c2)ccc1OC (stereo unspecified)	188 to 191 °C
